# SYSTEM UNDER TEST: insulin receptor (INSR) 281–299 (Homo sapiens)
Structures can show the parent of a compound that is named as a salt.
ASSAY READOUT: Kd (µM)
# unit: µM | format: bare number

# input Send back insulin receptor (INSR) 281–299 (Homo sapiens) Kd of NCCc1c[nH]c2ccc(O)cc12 [Serotonin] only.
# output 900

# input Return reported Kd for target or system insulin receptor (INSR) 281–299 (Homo sapiens), item CNC[C@H](O)c1ccc(O)c(O)c1 [Epinephrine HCl] .
# output 200

----------
# PROTOCOL NOTES: UV spectroscopy binding between compounds: binding to methadone
# MEASUREMENT SETUP: pH 7.4 sodium phosphate buffer, read-out: Kd @ 200 nm, binding to Meth
Counter-ions that a name gives are not always drawn.
ASSAY READOUT: Kd

# input Recall and state the measured Kd for NCC(O)c1ccc(O)cc1 (centres unmarked) [Octopamine] .
# output > 1000 µM

# input Report Kd for CNC[C@H](O)c1cccc(O)c1 [Phenylephrine]
# output > 1000 µM

# input Retrieve Kd measured for CNC[C@H](O)c1ccc(O)c(O)c1 [Epinephrine HCl] and print it.
# output 300 µM

# input Provide Kd value for the following molecule: CC(=O)OCC[N+](C)(C)C [Acetylcholine]
# output > 1000 µM

# input Given the molecule CC(C)(C)NCC(O)c1ccc(O)c(CO)c1 (centres unmarked) [Salbutamol] , write its reported Kd.
# output > 1000 µM

----------
Please respond with reported pKd for every item in the list.
# PROTOCOL NOTES: UV spectroscopy binding between compounds: binding to naloxone
# MEASUREMENT SETUP: pH 7.4 sodium phosphate buffer, read-out: Kd @ 200 nm, binding to NAL
A value of pKd is the negative decimal logarithm of a concentration given in moles per litre.

# input Please look at this molecule and report its pKd: NCCc1ccc(O)cc1
# output 4.05

# input Give the value of pKd reported for the following: N[C@@H](Cc1ccc(O)cc1)C(=O)O
# output 4.12

# input Hello, please tell me recorded pKd for this one: COc1ccc2[nH]cc(CCNC(C)=O)c2c1
# output 4.92

----------
# PROTOCOL NOTES: UV spectroscopy binding between compounds: binding to ascorbic acid
# MEASUREMENT SETUP: read-out: Kd @ 200 nm, binding to Asc, pH 7.4 sodium phosphate buffer
Counter-ions that a name gives are not always drawn.
ASSAY READOUT: pKd
Remember, pKd is on a log scale: it is -log10 of the molar concentration.

# input Kindly indicate its recorded pKd. Item: NC[C@H](O)c1ccc(O)c(O)c1 [Norepinephrine HCl]
# output 3.96

# input For the compound NCCc1ccc(O)c(O)c1 [Dopamine] , give its reported pKd.
# output 4.00

# input Supply recorded pKd for N[C@@H](Cc1ccc(O)cc1)C(=O)O [Tyrosine] here.
# output 3.57

# input Given CC(C)NCC(O)c1ccc(O)c(O)c1 (stereo not shown) [Isoproterenol] , respond with its pKd.
# output 3.89

# input Respond only with pKd recorded for NCCc1ccc(O)cc1 [Tyramine]
# output 3.70

# input Please report pKd for the following compound: COc1ccc2[nH]cc(CCNC(C)=O)c2c1 [Melatonin]
# output 3.40

# input Provide only the value of recorded pKd for NCC(O)c1ccc(O)cc1 (stereo not shown) [Octopamine]
# output 3.66

# input For the compound N[C@@H](Cc1ccc(O)c(O)c1)C(=O)O [L-DOPA, L-3,4-dihydroxyphenylalanine] , report pKd.
# output 4.00

# input Consider the compound CNC[C@H](O)c1ccc(O)c(O)c1 [Epinephrine HCl] and give its recorded pKd.
# output 4.05

# input Return pKd for the following compound: CC(C)(C)NCC(O)c1ccc(O)c(CO)c1 (stereo not shown) [Salbutamol]
# output 3.80
